Molecular target: panel of more than 300 wild-type and mutant kinases (313 kinase panel) (Homo sapiens, UniProt P49137)
Sequence (P49137 whole entry, change not shown): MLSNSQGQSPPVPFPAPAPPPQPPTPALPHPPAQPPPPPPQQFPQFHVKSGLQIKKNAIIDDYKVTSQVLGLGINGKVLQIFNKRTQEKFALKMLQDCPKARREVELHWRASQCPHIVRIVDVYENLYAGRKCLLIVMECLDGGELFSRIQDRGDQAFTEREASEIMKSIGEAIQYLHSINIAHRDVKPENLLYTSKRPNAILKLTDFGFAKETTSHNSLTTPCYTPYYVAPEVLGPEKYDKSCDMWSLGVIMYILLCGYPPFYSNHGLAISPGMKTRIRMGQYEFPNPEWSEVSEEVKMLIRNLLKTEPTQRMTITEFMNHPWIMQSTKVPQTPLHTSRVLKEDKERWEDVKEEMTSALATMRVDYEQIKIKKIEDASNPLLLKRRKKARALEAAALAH
Assay: Kinase profiling in a biochemical assay panel (mobility shift assays and ELISA), %-inhibition at 1 μM; selectivity entropy
Conditions: kinase MAPKAPK2; compound at 1 μM
measuredParameter: %-inhibition of MAPKAPK2
// return the numeric value with its unit appended

Some entries whose results are on file:
molecule	%-inhibition of MAPKAPK2
CO[C@H]1C[C@@H]2CC[C@@H](C)[C@@](O)(O2)C(=O)C(=O)N2CCCC[C@H]2C(=O)O[C@H]([C@H](C)C[C@@H]2CC[C@@H](OCCO)[C@H](OC)C2)CC(=O)[C@H](C)/C=C(\C)[C@@H](O)[C@@H](OC)C(=O)[C@H](C)C[C@H](C)/C=C/C=C/C=C/1C [everolimus]	-18%
O=S(=O)(c1cccc2cnccc12)N1CCCNCC1 [fasudil]	-13%
CNC(=O)c1cc(Oc2ccc(NC(=O)Nc3ccc(Cl)c(C(F)(F)F)c3)c(F)c2)ccn1 [regorafenib]	-21%

Summary for this molecule, COc1cc2nccc(Oc3ccc(NC(=O)C4(C(=O)Nc5ccc(F)cc5)CC4)cc3)c2cc1OC [cabozantinib] : %-inhibition of MAPKAPK2 is -17%

Summary for this molecule, Cc1ccc(Nc2nccc(N(C)c3ccc4c(C)n(C)nc4c3)n2)cc1S(N)(=O)=O [pazopanib] : %-inhibition of MAPKAPK2 is -2.44%

Summary for this molecule, C[C@@H](Oc1cc(-c2cnn(C3CCNCC3)c2)cnc1N)c1c(Cl)ccc(F)c1Cl [crizotinib] : %-inhibition of MAPKAPK2 is -17%

----------
Entries annotated with measured %-inhibition of FLT1
Target: panel of more than 300 wild-type and mutant kinases (313 kinase panel) (Homo sapiens, UniProt P17948)
Assay: Kinase profiling in a biochemical assay panel (mobility shift assays and ELISA), %-inhibition at 1 μM; selectivity entropy
Settings: kinase FLT1; compound at 1 μM
Answer in %, number only, no unit symbol.

Summary for this compound, CC(=O)Nc1cccc(-n2c(=O)n(C3CC3)c(=O)c3c(Nc4ccc(I)cc4F)n(C)c(=O)c(C)c32)c1 : %-inhibition of FLT1 is -2.75

Summary for this compound, CC(C)(C)c1nc(-c2cccc(NS(=O)(=O)c3c(F)cccc3F)c2F)c(-c2ccnc(N)n2)s1 : %-inhibition of FLT1 is 62

Summary for this compound, N#CC[C@H](C1CCCC1)n1cc(-c2ncnc3[nH]ccc23)cn1 : %-inhibition of FLT1 is 11

Summary for this compound, CO[C@H]1C[C@@H]2CC[C@@H](C)[C@@](O)(O2)C(=O)C(=O)N2CCCC[C@H]2C(=O)O[C@H]([C@H](C)C[C@@H]2CC[C@@H](OC(=O)C(C)(CO)CO)[C@H](OC)C2)CC(=O)[C@H](C)/C=C(\C)[C@@H](O)[C@@H](OC)C(=O)[C@H](C)C[C@H](C)/C=C/C=C/C=C/1C : %-inhibition of FLT1 is -2

Summary for this compound, Cc1cn(-c2cc(NC(=O)c3ccc(C)c(Nc4nccc(-c5cccnc5)n4)c3)cc(C(F)(F)F)c2)cn1 : %-inhibition of FLT1 is 32

Summary for this compound, Cc1ccc(Nc2nccc(N(C)c3ccc4c(C)n(C)nc4c3)n2)cc1S(N)(=O)=O : %-inhibition of FLT1 is 100

----------
Target: panel of more than 300 wild-type and mutant kinases (313 kinase panel) (Homo sapiens, UniProt Q9NZJ5)
Test: Kinase profiling in a biochemical assay panel (mobility shift assays and ELISA), %-inhibition at 1 μM; selectivity entropy
Conditions: kinase PEK; 1 μM
measuredParameter: %-inhibition of PEK (%)
Answer in %, number only, no unit symbol.

smilesInput	measuredParameter	experimentalValue
CS(=O)(=O)CCNCc1ccc(-c2ccc3ncnc(Nc4ccc(OCc5cccc(F)c5)c(Cl)c4)c3c2)o1	%-inhibition of PEK	-0.193
Cc1ccc(C(=O)Nc2ccc(CN3CCN(C)CC3)c(C(F)(F)F)c2)cc1C#Cc1cnc2cccnn12	%-inhibition of PEK	65
Cc1cn(-c2cc(NC(=O)c3ccc(C)c(Nc4nccc(-c5cccnc5)n4)c3)cc(C(F)(F)F)c2)cn1	%-inhibition of PEK	0.387
CO[C@H]1C[C@@H]2CC[C@@H](C)[C@@](O)(O2)C(=O)C(=O)N2CCCC[C@H]2C(=O)O[C@H]([C@H](C)C[C@@H]2CC[C@@H](OC(=O)C(C)(CO)CO)[C@H](OC)C2)CC(=O)[C@H](C)/C=C(\C)[C@@H](O)[C@@H](OC)C(=O)[C@H](C)C[C@H](C)/C=C/C=C/C=C/1C	%-inhibition of PEK	8
COc1cc2c(Nc3ccc(Br)cc3F)ncnc2cc1OCC1CCN(C)CC1	%-inhibition of PEK	4.69

Next compound, please.
Summary for this compound, COc1cc(Nc2c(C#N)cnc3cc(OCCCN4CCN(C)CC4)c(OC)cc23)c(Cl)cc1Cl : %-inhibition of PEK is 11

----------
Target: panel of more than 300 wild-type and mutant kinases (313 kinase panel) (Homo sapiens)
Test: Kinase profiling in a biochemical assay panel (mobility shift assays and ELISA), %-inhibition at 1 μM; selectivity entropy
Conditions: kinase CLK2; 1 μM compound
measuredParameter: %-inhibition, CLK2 (%)
Answer in %, number only, no unit symbol.

Some entries whose results are on file:
compound	measuredParameter	outputUnit	experimentalValue
COc1cc(Nc2c(C#N)cnc3cc(OCCCN4CCN(C)CC4)c(OC)cc23)c(Cl)cc1Cl [bosutinib]	%-inhibition, CLK2	%	-0.431
CO[C@H]1C[C@@H]2CC[C@@H](C)[C@@](O)(O2)C(=O)C(=O)N2CCCC[C@H]2C(=O)O[C@H]([C@H](C)C[C@@H]2CC[C@@H](OC(=O)C(C)(CO)CO)[C@H](OC)C2)CC(=O)[C@H](C)/C=C(\C)[C@@H](O)[C@@H](OC)C(=O)[C@H](C)C[C@H](C)/C=C/C=C/C=C/1C [temsirolimus]	%-inhibition, CLK2	%	-4.4
Cc1ccc(Nc2nccc(N(C)c3ccc4c(C)n(C)nc4c3)n2)cc1S(N)(=O)=O [pazopanib]	%-inhibition, CLK2	%	0.914
Cc1cn(-c2cc(NC(=O)c3ccc(C)c(Nc4nccc(-c5cccnc5)n4)c3)cc(C(F)(F)F)c2)cn1 [nilotinib]	%-inhibition, CLK2	%	1.71
O=S(=O)(c1cccc2cnccc12)N1CCCNCC1 [fasudil]	%-inhibition, CLK2	%	-0.292

Next compound, please.
Summary for this compound, CNC(=O)c1cc(Oc2ccc(NC(=O)Nc3ccc(Cl)c(C(F)(F)F)c3)c(F)c2)ccn1 [regorafenib] : %-inhibition, CLK2 is -24

----------
Target: panel of more than 300 wild-type and mutant kinases (313 kinase panel) (Homo sapiens)
Assay: Kinase profiling in a biochemical assay panel (mobility shift assays and ELISA), %-inhibition at 1 μM; selectivity entropy
Conditions: kinase PAK4; 1 μM
Entries annotated with measured %-inhibition of PAK4
Answer in %, number only, no unit symbol.

Known value: panel of more than 300 wild-type and mutant kinases (313 kinase panel) (Homo sapiens) %-inhibition of PAK4 of the compound N#CC[C@H](C1CCCC1)n1cc(-c2ncnc3[nH]ccc23)cn1 [ruxolitinib] equals 0.371

Known value: panel of more than 300 wild-type and mutant kinases (313 kinase panel) (Homo sapiens) %-inhibition of PAK4 of the compound COc1cc2nccc(Oc3ccc(NC(=O)C4(C(=O)Nc5ccc(F)cc5)CC4)cc3)c2cc1OC [cabozantinib] equals -13

Known value: panel of more than 300 wild-type and mutant kinases (313 kinase panel) (Homo sapiens) %-inhibition of PAK4 of the compound C[C@@H](Oc1cc(-c2cnn(C3CCNCC3)c2)cnc1N)c1c(Cl)ccc(F)c1Cl [crizotinib] equals -5.56

----------
System: forty-four human cancer cell lines
Assay: Cell proliferation assay (ATPlite, 72 hours) in the 44 cell line Oncolines panel
Assay type: cell-based
Settings: Homo sapiens, 4-4 cell, read-out: cell panel IC50, PA-1
Entries annotated with measured IC50

Some entries whose results are on file:
>>> print(df.to_string())
                                smilesinput  experimentalvalue
0  Cc1nc(Nc2ncc(C(=O)Nc3c(C)cccc3Cl)s2)cc(N2CCN(CCO)CC2)n1              55 nM
1          O=S(=O)(c1cccc2cnccc12)N1CCCNCC1         > 31600 nM
2  CNC(=O)c1ccccc1Sc1ccc2c(/C=C/c3ccccn3)n[nH]c2c1            1290 nM

Summary for this compound, COc1cc(Nc2c(C#N)cnc3cc(OCCCN4CCN(C)CC4)c(OC)cc23)c(Cl)cc1Cl : IC50 is 1260 nM

Summary for this compound, C[C@@H](Oc1cc(-c2cnn(C3CCNCC3)c2)cnc1N)c1c(Cl)ccc(F)c1Cl : IC50 is 888 nM

Summary for this compound, CCN(CC)CCNC(=O)c1c(C)[nH]c(/C=C2\C(=O)Nc3ccc(F)cc32)c1C : IC50 is 1310 nM
